For reference, AC50 measured on UniProt:Q9Y5N1:
Experimental endpoint: AC50

INSERT INTO measurements (compound, measured_target, experimental_endpoint, measured_result) VALUES
  ('Nc1ccc(S(=O)(=O)c2cnc(N)s2)cc1 [THIAZOLSULFONE]', 'UniProt:Q9Y5N1', 'AC50', '> 30 µM'),
  ('COC1=C(OC)C(=O)C(C/C=C(\C)CC/C=C(\C)CC/C=C(\C)CC/C=C(\C)CC/C=C(\C)CC/C=C(\C)CC/C=C(\C)CC/C=C(\C)CC/C=C(\C)CCC=C(C)C)=C(C)C1=O [UBIDECARENONE]', 'UniProt:Q9Y5N1', 'AC50', '> 30 µM'),
  ('C[N+]1(CCCCC[N+]2(C)CCCC2)CCCC1 [PENTOLINIUM]', 'UniProt:Q9Y5N1', 'AC50', '> 30 µM'),
  ('CO[C@]12C[C@@H](COC(=O)c3cncc(Br)c3)CN(C)[C@@H]1Cc1cn(C)c3cccc2c13 [NICERGOLINE]', 'UniProt:Q9Y5N1', 'AC50', '7.91 µM'),
  ('CC(=O)Oc1ccc2c(c1)CC[C@@H]1[C@@H]2CC[C@]2(C)[C@@H](O)CC[C@@H]12 [ESTRADIOL ACETATE]', 'UniProt:Q9Y5N1', 'AC50', '> 30 µM'),
  ('CC[C@]1(O)C[C@H]2CN(CCc3c([nH]c4ccccc34)[C@@](C(=O)OC)(c3cc4c(cc3OC)N(C=O)[C@H]3[C@@](O)(C(=O)OC)[C@H](OC(C)=O)[C@]5(CC)C=CCN6CC[C@]43[C@@H]65)C2)C1 [VINCRISTINE]', 'UniProt:Q9Y5N1', 'AC50', '> 30 µM');

---

Each record here notes measured AC50.
- Measured target: Gamma-aminobutyric acid receptor subunit alpha-1 (Rattus norvegicus, UniProt P62813); further: assay procedure not described here
- Sequence (P62813 whole entry): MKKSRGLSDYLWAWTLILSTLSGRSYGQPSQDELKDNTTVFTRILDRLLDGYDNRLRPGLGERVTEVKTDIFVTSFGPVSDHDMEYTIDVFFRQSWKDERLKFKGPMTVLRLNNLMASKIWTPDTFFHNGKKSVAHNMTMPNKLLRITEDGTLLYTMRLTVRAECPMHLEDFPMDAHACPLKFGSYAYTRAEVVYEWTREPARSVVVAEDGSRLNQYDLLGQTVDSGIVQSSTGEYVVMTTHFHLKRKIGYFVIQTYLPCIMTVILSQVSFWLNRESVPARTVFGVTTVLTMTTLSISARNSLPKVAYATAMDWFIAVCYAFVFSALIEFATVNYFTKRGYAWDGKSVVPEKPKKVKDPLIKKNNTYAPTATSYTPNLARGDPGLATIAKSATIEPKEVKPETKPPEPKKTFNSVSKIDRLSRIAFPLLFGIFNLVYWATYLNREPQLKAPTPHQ
Experimental endpoint: AC50

INSERT INTO results (molecule, measured_result) VALUES
  ('COC(=O)C1=C(C)NC(C)=C(C(=O)OC2CCCN(Cc3ccccc3)C2)C1c1cccc([N+](=O)[O-])c1 (configuration not stated) [BENIDIPINE]', '> 30 µM'),
  ('CC(C)Cn1cnc2c(N)nc3ccccc3c21 [IMIQUIMOD]', '> 10 µM'),
  ('CC1=C(C(=O)O)N2C(=O)[C@@H](NC(=O)[C@H](N)c3ccccc3)[C@H]2SC1 [CEPHALEXIN ANHYDROUS]', '> 10 µM'),
  ('COc1ccc(CCNCC(O)COc2cccc(C)c2)cc1OC (configuration not stated) [BEVANTOLOL]', '> 10 µM'),
  ('CN(C)CCC(c1ccc(Cl)cc1)c1ccccn1 (configuration not stated) [CHLORPHENIRAMINE]', '> 10 µM'),
  ('CC(=O)NCCCS(=O)(=O)O [ACAMPROSATE]', '> 30 µM'),
  ('CC1(C)NC(=O)N(c2ccc([N+](=O)[O-])c(C(F)(F)F)c2)C1=O [NILUTAMIDE]', '> 30 µM'),
  ('CN1[C@@H]2CC[C@H]1C[C@@H](OC(c1ccccc1)c1ccccc1)C2 [BENZTROPINE]', '> 10 µM'),
  ('CCC(C(=O)O)c1ccc(N2Cc3ccccc3C2=O)cc1 (configuration not stated) [INDOBUFEN]', '> 30 µM'),
  ('CCCN(CCC)C(=O)C(CCC(=O)O)NC(=O)c1ccccc1 (configuration not stated) [PROGLUMIDE]', '> 10 µM'),
  ('CCCCc1ncc(/C=C(\Cc2cccs2)C(=O)O)n1Cc1ccc(C(=O)O)cc1 [EPROSARTAN]', '> 10 µM'),
  ('CC1(C)O[C@@H]2C[C@H]3[C@@H]4CCC5=CC(=O)C=C[C@]5(C)[C@H]4[C@@H](O)C[C@]3(C)[C@]2(C(=O)CO)O1 [DESONIDE]', '> 10 µM'),
  ('NCC[C@H](O)C(=O)N[C@@H]1C[C@H](N)[C@@H](O[C@H]2O[C@H](CN)[C@@H](O)[C@H](O)[C@H]2O)[C@H](O)[C@H]1O[C@H]1O[C@H](CO)[C@@H](O)[C@H](N)[C@H]1O [AMIKACIN]', '> 10 µM'),
  ('Nc1nc(/C(=C/CC(=O)O)C(=O)N[C@@H]2C(=O)N3C(C(=O)O)=CCS[C@H]23)cs1 [CEFTIBUTEN]', '> 30 µM'),
  ('Cc1c(OCC(F)(F)F)ccnc1C[S+]([O-])c1nc2ccccc2[nH]1 (configuration not stated) [LANSOPRAZOLE]', '> 10 µM'),
  ('CN1C(=O)C(O)N=C(c2ccccc2Cl)c2cc(Cl)ccc21 (configuration not stated) [LORMETAZEPAM]', '> 30 µM'),
  ('Nc1nc(Cl)nc2c1ncn2[C@H]1C[C@H](O)[C@@H](CO)O1 [CLADRIBINE]', '> 30 µM');

---

- Measured target: Adenosine receptor A3 (Homo sapiens); further: assay procedure not described here
- Sequence (P0DMS8 whole entry): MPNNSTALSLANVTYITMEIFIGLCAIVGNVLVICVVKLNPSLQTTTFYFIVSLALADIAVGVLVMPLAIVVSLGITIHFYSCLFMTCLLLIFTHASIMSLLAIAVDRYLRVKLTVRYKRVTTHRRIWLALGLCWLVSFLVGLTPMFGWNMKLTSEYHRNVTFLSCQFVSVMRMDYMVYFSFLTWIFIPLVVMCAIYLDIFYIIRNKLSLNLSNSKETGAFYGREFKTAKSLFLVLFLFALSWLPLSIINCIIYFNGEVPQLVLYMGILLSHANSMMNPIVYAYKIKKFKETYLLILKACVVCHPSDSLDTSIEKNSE
Each record here notes measured AC50.
Experimental endpoint: AC50

INSERT INTO measurements (compound, experimental_endpoint, measured_result) VALUES
  ('CC(=O)Oc1ccc2c(c1)CC[C@@H]1[C@@H]2CC[C@]2(C)[C@@H](O)CC[C@@H]12 [ESTRADIOL ACETATE]', 'AC50', '10.5 µM'),
  ('C=C[C@H]1C[N@@]2CC[C@H]1C[C@H]2[C@H](O)c1ccnc2ccc(OC)cc12 [QUININE]', 'AC50', '> 30 µM'),
  ('O=C(O)c1cc(O)ccc1O [GENTISIC ACID]', 'AC50', '> 30 µM'),
  ('NC1CCN(c2c(F)cc3c(=O)c(C(=O)O)cn(C4CC4)c3c2Cl)C1 (centres undefined) [CLINAFLOXACIN]', 'AC50', '> 30 µM'),
  ('CC(C)(C)C(=O)C(Oc1ccc(Cl)cc1)n1ccnc1 (centres undefined) [CLIMBAZOLE]', 'AC50', '20.2 µM'),
  ('O=c1[nH]c(=O)n(C2CCCO2)cc1F (centres undefined) [TEGAFUR]', 'AC50', '> 30 µM'),
  ('CO[C@]12C[C@@H](COC(=O)c3cncc(Br)c3)CN(C)[C@@H]1Cc1cn(C)c3cccc2c13 [NICERGOLINE]', 'AC50', '22.4 µM'),
  ('O=C(CCNNC(=O)c1ccncc1)NCc1ccccc1 [NIALAMIDE]', 'AC50', '> 30 µM'),
  ('N=C1CCCN1Cc1[nH]c(=O)[nH]c(=O)c1Cl', 'AC50', '> 30 µM');

---

- Measured target: D(3) dopamine receptor (Homo sapiens); further: assay procedure not described here
- Sequence (P35462 whole entry): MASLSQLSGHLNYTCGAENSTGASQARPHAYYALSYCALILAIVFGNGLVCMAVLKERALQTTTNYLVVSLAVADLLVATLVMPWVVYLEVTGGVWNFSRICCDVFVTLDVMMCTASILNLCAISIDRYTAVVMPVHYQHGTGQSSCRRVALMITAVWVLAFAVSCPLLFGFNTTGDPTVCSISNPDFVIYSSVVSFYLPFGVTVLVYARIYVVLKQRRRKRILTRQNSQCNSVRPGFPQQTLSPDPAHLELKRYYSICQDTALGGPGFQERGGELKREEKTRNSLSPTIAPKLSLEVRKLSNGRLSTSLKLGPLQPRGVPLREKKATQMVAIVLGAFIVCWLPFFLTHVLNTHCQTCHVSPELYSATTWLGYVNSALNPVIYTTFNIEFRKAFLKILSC
Experimental endpoint: AC50

INSERT INTO measurements (compound, experimental_endpoint, measured_result) VALUES
  ('Nc1nc(/C(=C/CC(=O)O)C(=O)N[C@@H]2C(=O)N3C(C(=O)O)=CCS[C@H]23)cs1 [CEFTIBUTEN]', 'AC50', '> 30 µM'),
  ('CO[C@@H]1[C@@H](O[C@@H]2O[C@H](C)[C@@H](O[C@H]3C[C@@](C)(O)[C@@H](OC(=O)CC(C)C)[C@H](C)O3)[C@H](N(C)C)[C@H]2O)[C@@H](CC=O)C[C@@H](C)[C@@H](O)/C=C/C=C/C[C@@H](C)OC(=O)C[C@H]1OC(C)=O [JOSAMYCIN]', 'AC50', '> 30 µM'),
  ('CCOc1ccc(Cc2cc([C@@H]3O[C@H](CO)[C@@H](O)[C@H](O)[C@H]3O)ccc2Cl)cc1 [DAPAGLIFLOZIN]', 'AC50', '> 30 µM');

---

- Measured target: Cholecystokinin receptor type A (Homo sapiens, UniProt P32238); further: assay procedure not described here
- Sequence (P32238 whole entry): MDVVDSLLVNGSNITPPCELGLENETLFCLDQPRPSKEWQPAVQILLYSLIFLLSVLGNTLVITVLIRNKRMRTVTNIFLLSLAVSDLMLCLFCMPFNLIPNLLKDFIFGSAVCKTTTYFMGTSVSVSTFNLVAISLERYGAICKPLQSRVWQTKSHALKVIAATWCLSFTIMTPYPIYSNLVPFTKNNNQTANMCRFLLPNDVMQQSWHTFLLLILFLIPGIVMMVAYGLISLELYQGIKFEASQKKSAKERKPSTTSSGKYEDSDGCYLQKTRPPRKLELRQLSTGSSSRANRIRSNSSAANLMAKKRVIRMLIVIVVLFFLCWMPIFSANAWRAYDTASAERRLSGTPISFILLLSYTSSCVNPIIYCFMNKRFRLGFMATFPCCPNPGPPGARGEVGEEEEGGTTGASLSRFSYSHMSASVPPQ
Each record here notes measured AC50.
Experimental endpoint: AC50

INSERT INTO results (compound, measured_result) VALUES
  ('C[C@](N)(Cc1ccc(O)c(O)c1)C(=O)O [METHYLDOPA]', '> 10 µM'),
  ('Cc1cn([C@H]2C=C[C@@H](CO)O2)c(=O)[nH]c1=O [STAVUDINE]', '> 30 µM'),
  ('CCOC(=O)OC(C)OC1=C(C(=O)Nc2ccccn2)N(C)S(=O)(=O)c2ccccc21 (stereo not given) [AMPIROXICAM]', '> 30 µM'),
  ('C[C@H](N)[C@H](O)c1cccc(O)c1 [METARAMINOL]', '> 10 µM'),
  ('CC1(C)NC(=O)N(c2ccc([N+](=O)[O-])c(C(F)(F)F)c2)C1=O [NILUTAMIDE]', '> 30 µM'),
  ('CC=CC(=O)N(CC)c1ccccc1C', '> 10 µM'),
  ('CC1=C(C(=O)O)N2C(=O)[C@@H](NC(=O)[C@H](N)c3ccccc3)[C@H]2SC1 [CEPHALEXIN ANHYDROUS]', '> 30 µM'),
  ('NS(=O)(=O)Cc1noc2ccccc12 [ZONISAMIDE]', '> 10 µM'),
  ('CCOC(=O)[C@H](CCc1ccccc1)N[C@@H](C)C(=O)N1C(=O)N(C)C[C@H]1C(=O)O', '> 30 µM'),
  ('Fc1ccc(C(c2ccccc2)(c2ccccc2F)n2ccnc2)cc1 (stereo not given) [FLUTRIMAZOLE]', '> 30 µM');
